# pIC50 measurements, system: Human immunodeficiency virus type 1 protease (Human immunodeficiency virus 1)
pIC50: −log10 of the molar value.
quantityName: pIC50

INSERT INTO measurements (smilesrepresentation, targetentity, censoringqualifier, recordedresult) VALUES
  ('CC(C)[C@H](NC(=O)OCc1ccccc1)C(=O)N[C@@H](Cc1ccccc1)C1(O)CCN(CCc2ccccc2)CC1', 'Human immunodeficiency virus type 1 protease (Human immunodeficiency virus 1)', '=', 4.41),
  ('CC(C)(C)OC(=O)N[C@@H](Cc1ccccc1)C1(O)CCN([C@@H](Cc2ccccc2)C(=O)N[C@H]2c3ccccc3C[C@H]2O)CC1', 'Human immunodeficiency virus type 1 protease (Human immunodeficiency virus 1)', '=', 5.84),
  ('O=C(N[C@@H](Cc1ccccc1)C1(O)CCN([C@@H](Cc2ccccc2)C(=O)N[C@H]2c3ccccc3C[C@H]2O)CC1)O[C@H]1CCOC1', 'Human immunodeficiency virus type 1 protease (Human immunodeficiency virus 1)', '=', 4.53),
  ('CC(C)(C)NC(=O)[C@H](CC1CCCCC1)N1CCC(O)([C@H](Cc2ccccc2)NC(=O)OC(C)(C)C)CC1', 'Human immunodeficiency virus type 1 protease (Human immunodeficiency virus 1)', '<', 4.00),
  ('CC(C)C[C@@H](C(=O)NC(C)(C)C)N1CCC(O)([C@H](Cc2ccccc2)NC(=O)[C@@H](NC(=O)OCc2ccccc2)C(C)C)CC1', 'Human immunodeficiency virus type 1 protease (Human immunodeficiency virus 1)', '=', 4.57),
  ('CC(C)(C)OC(=O)N[C@@H](Cc1ccccc1)[C@]1(O)CCCN([C@@H](Cc2ccccc2)C(=O)N[C@H]2c3ccccc3C[C@H]2O)C1', 'Human immunodeficiency virus type 1 protease (Human immunodeficiency virus 1)', '<', 4.00),
  ('CC(C)(C)OC(=O)N[C@@H](Cc1ccccc1)[C@@]1(O)CCN([C@@H](Cc2ccccc2)C(=O)N[C@H]2c3ccccc3C[C@H]2O)C1', 'Human immunodeficiency virus type 1 protease (Human immunodeficiency virus 1)', '=', 5.22),
  ('CC(C)(C)NC(=O)[C@H](CC1CCCCC1)N1CCC[C@](O)([C@H](Cc2ccccc2)NC(=O)OC(C)(C)C)C1', 'Human immunodeficiency virus type 1 protease (Human immunodeficiency virus 1)', '<', 4.00),
  ('CC(C)C[C@@H](C(=O)NC(C)(C)C)N1CCC[C@@](O)([C@H](Cc2ccccc2)NC(=O)OC(C)(C)C)C1', 'Human immunodeficiency virus type 1 protease (Human immunodeficiency virus 1)', '<', 4.00),
  ('CC(C)(C)NC(=O)[C@H](CC1CCCCC1)N1CC[C@@](O)([C@H](Cc2ccccc2)NC(=O)OC(C)(C)C)C1', 'Human immunodeficiency virus type 1 protease (Human immunodeficiency virus 1)', '=', 4.43),
  ('CC(C)(C)OC(=O)N[C@@H](Cc1ccccc1)[C@]1(O)CCN([C@@H](Cc2ccccc2)C(=O)N[C@H]2c3ccccc3C[C@H]2O)C1', 'Human immunodeficiency virus type 1 protease (Human immunodeficiency virus 1)', '=', 6.22),
  ('CC(C)[C@H](NC(=O)OCc1ccccc1)C(=O)N[C@@H](Cc1ccccc1)[C@]1(O)CCN([C@@H](Cc2ccccc2)C(=O)N[C@H]2c3ccccc3C[C@H]2O)C1', 'Human immunodeficiency virus type 1 protease (Human immunodeficiency virus 1)', '=', 6.66);
